Please go through the items and note down their pIC50.
EXPERIMENTAL SYSTEM: MET (human) (Homo sapiens)
Sequence (P08581 25-1390): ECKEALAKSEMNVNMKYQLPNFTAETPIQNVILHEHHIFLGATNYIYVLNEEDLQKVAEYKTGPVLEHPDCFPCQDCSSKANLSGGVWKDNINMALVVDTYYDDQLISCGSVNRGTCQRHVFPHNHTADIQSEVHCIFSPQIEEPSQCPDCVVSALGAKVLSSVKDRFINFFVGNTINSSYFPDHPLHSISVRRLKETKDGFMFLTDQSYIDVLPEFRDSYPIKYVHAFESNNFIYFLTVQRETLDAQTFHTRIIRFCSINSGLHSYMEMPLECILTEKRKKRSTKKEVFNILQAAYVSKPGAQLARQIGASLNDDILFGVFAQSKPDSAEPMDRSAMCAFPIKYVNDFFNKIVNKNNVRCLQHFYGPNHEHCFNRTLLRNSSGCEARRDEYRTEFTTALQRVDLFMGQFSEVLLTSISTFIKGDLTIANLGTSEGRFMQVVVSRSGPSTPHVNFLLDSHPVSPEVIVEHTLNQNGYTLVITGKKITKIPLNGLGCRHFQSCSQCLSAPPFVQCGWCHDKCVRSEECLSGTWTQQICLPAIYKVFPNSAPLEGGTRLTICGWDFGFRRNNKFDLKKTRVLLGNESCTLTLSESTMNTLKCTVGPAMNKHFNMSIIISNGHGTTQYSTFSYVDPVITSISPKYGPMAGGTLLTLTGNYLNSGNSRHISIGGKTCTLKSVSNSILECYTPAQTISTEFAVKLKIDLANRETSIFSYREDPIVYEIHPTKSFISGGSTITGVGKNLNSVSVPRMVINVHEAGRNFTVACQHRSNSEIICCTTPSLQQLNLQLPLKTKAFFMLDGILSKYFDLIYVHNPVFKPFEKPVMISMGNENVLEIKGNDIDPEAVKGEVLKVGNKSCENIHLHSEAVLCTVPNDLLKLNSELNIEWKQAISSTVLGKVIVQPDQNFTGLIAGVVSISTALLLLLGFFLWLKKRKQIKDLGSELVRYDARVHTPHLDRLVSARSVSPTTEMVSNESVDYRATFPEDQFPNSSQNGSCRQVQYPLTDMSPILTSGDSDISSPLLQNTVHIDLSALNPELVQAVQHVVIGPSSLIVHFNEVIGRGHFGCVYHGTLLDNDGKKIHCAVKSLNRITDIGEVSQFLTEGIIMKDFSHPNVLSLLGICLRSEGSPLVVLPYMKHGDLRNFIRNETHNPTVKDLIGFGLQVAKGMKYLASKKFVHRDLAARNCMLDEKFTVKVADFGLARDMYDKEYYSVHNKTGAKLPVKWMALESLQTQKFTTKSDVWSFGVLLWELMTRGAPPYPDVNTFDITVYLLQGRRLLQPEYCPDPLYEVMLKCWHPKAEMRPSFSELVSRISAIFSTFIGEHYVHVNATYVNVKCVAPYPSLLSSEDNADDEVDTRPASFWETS
ASSAY: MET (human) AlphaScreen kinase assay, Km of ATP
Assay type: biochemical
CONDITION LABEL: AlphaScreen, Km of ATP; read-out: Met biochemical IC50
Description: Someone skilled in the art will appreciate that a variety of assay formats may be used to determine the activity of the compounds of this invention. For example, AlphaScreen (Amplified Luminescent Proximity Homogeneous Assay) technology was used with the kinases described below. […] Desired compound is added in a final concentration of 1% DMSO with control being vehicle of DMSO alone. […] The plates, incubated for 1 h, are read on an AlphaQuest plate reader
pIC50: −log10 of the molar value.

Use the examples below as a reference point.
CC(C)NC(=O)c1cc(-c2coc3c(O[C@H](C)c4c(Cl)ccc(F)c4Cl)c(N)ncc23)cs1 [Example 312]    > 6.30
C[C@@H](Oc1c(N)ncc2c(-c3cccc(CO)c3)coc12)c1c(Cl)ccc(F)c1Cl [Example 57]    5.30 to 6.30
C[C@@H](Oc1c(N)ncc2c(C3=CCN(C(=O)C4CCNCC4)CC3)coc12)c1c(Cl)ccc(F)c1Cl [Example 21]    > 6.30
C[C@H](Oc1c(N)ncc2c(-c3cnn(C4CCNCC4)c3)coc12)c1ccccn1 [Example 395]    5.30 to 6.30
C[C@@H](Oc1c(N)ncc2c(-c3ccc(N4CCN(C)CC4)nc3)coc12)c1c(Cl)ccc(F)c1Cl [Example 88]    > 6.30
CC(Oc1c(N)ncc2c(-c3cnn(C4CCNCC4)c3)coc12)c1c(Cl)c(F)cc(OCCCN)c1Cl (stereo not shown) [Example 155]    > 6.30
C#CCC(Oc1c(N)ncc2c(-c3cnn(C4CCNCC4)c3)coc12)c1c(Cl)cccc1Cl (stereo not shown) [Example 341]    > 6.30
CC(=O)Nc1cccc(-c2coc3c(O[C@H](C)c4c(Cl)ccc(F)c4Cl)c(N)ncc23)c1 [Example 78]    5.30 to 6.30
CC(C)NC(=O)N1CC=C(c2coc3c(O[C@H](C)c4c(Cl)ccc(F)c4Cl)c(N)ncc23)CC1 [Example 149]    > 6.30
CNC(=O)c1cccc(C(C)Oc2c(N)ncc3c(-c4cnn(C5CCNCC5)c4)coc23)c1 (stereo not shown) [Example 412]    5.30 to 6.30

Below is a list of molecules. For each, state its recorded pIC50.
1. C[C@@H](Oc1c(N)ncc2c(C3=CCN(C(=O)C(F)(F)F)CC3)coc12)c1c(Cl)ccc(F)c1Cl [Example 56]
2. C[C@@H](Oc1c(N)ncc2c(C3=CCN(/C(=N\C#N)N(C)C)CC3)coc12)c1c(Cl)ccc(F)c1Cl [Example 196]
3. C[C@@H](Oc1c(N)ncc2c(-c3cnc(N)nc3)coc12)c1c(Cl)ccc(F)c1Cl [Example 113]
4. C[C@@H](Oc1c(N)ncc2c(C3=CCN(S(C)(=O)=O)CC3)coc12)c1c(Cl)ccc(F)c1Cl [Example 46]
5. Cc1cccc(C(C)Oc2c(N)ncc3c(-c4cnn(C5CCNCC5)c4)coc23)c1 (stereo not shown) [Example 343]

1. 5.30 to 6.30
2. 5.30 to 6.30
3. 5.30 to 6.30
4. > 6.30
5. 5.30 to 6.30

Hey, quick one: what's pIC50 for each of these?
1. C[C@@H](Oc1c(N)ncc2c(C3=CCN(C(N)=O)CC3)coc12)c1c(Cl)ccc(F)c1Cl [Example 34]
2. CC(C)[C@H](O)C(=O)N1CC=C(c2coc3c(O[C@H](C)c4c(Cl)ccc(F)c4Cl)c(N)ncc23)CC1 [Example 267]
3. CC(Oc1c(N)ncc2c(-c3cnn(C4CCNCC4)c3)coc12)c1cc(F)cc(F)c1 (stereo not shown) [Example 384]
4. Cn1cc(-c2ccc3nnc(COc4c(N)ncc5ccoc45)n3n2)cn1 [Example 472]
5. C[C@@H](Oc1c(N)ncc2c(C3=CCN(C4CN(S(C)(=O)=O)C4)CC3)coc12)c1c(Cl)ccc(F)c1Cl [Example 323]
6. C[C@@H](Oc1c(N)ncc2c(-c3ccc(N)nc3)coc12)c1c(Cl)ccc(F)c1Cl [Example 131]

["> 6.30", "5.30 to 6.30", "5.30 to 6.30", "5.30 to 6.30", "5.30 to 6.30", "> 6.30"]

Need pIC50, item C[C@@H](Oc1c(N)ncc2c(-c3csc(CN)c3)coc12)c1c(Cl)ccc(F)c1Cl [Example 310]
> 6.30

* * *

For each of the compounds below, state its IC50.
EXPERIMENTAL SYSTEM: RON (human) (Homo sapiens)
ASSAY: RON (human) AlphaScreen kinase assay, Km of ATP
Format: biochemical
CONDITION LABEL: AlphaScreen, Km of ATP; read-out: RON biochemical IC50

Return reported IC50 values for all items listed beneath this line.
1. C[C@@H](Oc1c(N)ncc2c(C3=CCN(C(=O)Oc4ccccc4)CC3)coc12)c1c(Cl)ccc(F)c1Cl
2. C[C@@H](Oc1c(N)ncc2c(C(=O)NCCN(C)C)coc12)c1c(Cl)ccc(F)c1Cl
3. C[C@@H](Oc1c(N)ncc2c(-c3csc(C(=O)NC(C)(C)C)c3)coc12)c1c(Cl)ccc(F)c1Cl
4. CC(Oc1c(N)ncc2c(-c3cnn(C4CCNCC4)c3)coc12)c1ccc(OC(F)(F)F)cc1 (stereo not drawn)
5. C[C@@H](Oc1c(N)ncc2c(-c3cccc(NS(=O)(=O)CCC(F)(F)F)c3)coc12)c1c(Cl)ccc(F)c1Cl
6. C[C@@H](Oc1c(N)ncc2c(-c3cnn(C)c3)coc12)c1c(Cl)ccc(F)c1Cl

1: 0.5 to 5 µM; 2: 0.5 to 5 µM; 3: 0.5 to 5 µM; 4: 0.5 to 5 µM; 5: 5 to 20 µM; 6: 0.5 to 5 µM

* * *

For each record, write down the corresponding IC50.
EXPERIMENTAL SYSTEM: RON (human) (Homo sapiens, UniProt Q04912)
Sequence (Q04912 25-1400): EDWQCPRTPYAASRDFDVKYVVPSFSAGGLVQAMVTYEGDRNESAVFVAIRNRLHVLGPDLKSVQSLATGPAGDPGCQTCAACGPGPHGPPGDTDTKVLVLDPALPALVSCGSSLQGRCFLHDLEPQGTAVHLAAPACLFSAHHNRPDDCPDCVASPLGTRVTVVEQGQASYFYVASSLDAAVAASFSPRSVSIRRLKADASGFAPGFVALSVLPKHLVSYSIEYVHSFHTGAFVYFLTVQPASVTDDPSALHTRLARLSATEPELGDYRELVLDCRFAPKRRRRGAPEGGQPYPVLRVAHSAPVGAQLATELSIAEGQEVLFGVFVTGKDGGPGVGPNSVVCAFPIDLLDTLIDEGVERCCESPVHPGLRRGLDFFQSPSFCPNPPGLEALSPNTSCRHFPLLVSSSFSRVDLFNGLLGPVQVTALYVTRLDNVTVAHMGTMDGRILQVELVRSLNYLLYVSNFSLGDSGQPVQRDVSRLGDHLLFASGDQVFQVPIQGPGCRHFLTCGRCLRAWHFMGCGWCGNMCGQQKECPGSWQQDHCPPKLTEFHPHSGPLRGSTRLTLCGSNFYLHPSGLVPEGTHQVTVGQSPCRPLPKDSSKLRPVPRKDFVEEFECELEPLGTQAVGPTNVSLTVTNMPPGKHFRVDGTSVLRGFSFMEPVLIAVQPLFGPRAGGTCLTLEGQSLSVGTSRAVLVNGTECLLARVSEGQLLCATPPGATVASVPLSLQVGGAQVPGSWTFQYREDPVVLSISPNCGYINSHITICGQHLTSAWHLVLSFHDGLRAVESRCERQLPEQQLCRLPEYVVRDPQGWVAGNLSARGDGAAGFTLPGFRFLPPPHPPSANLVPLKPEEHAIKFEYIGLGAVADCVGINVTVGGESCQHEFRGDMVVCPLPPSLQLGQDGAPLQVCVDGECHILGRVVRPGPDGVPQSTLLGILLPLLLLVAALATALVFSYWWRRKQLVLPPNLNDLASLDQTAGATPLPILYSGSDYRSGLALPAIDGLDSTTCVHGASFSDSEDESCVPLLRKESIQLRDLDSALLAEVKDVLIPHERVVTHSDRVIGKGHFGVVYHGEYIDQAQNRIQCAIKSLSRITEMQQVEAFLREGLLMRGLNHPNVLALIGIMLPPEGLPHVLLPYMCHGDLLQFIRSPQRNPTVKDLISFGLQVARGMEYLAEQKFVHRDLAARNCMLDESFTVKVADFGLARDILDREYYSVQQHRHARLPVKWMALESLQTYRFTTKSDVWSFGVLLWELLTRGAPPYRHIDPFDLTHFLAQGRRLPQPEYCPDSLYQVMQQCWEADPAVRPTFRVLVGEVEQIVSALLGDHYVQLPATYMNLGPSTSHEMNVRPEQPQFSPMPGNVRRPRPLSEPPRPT
ASSAY: RON (human) AlphaScreen kinase assay, Km of ATP
Format: biochemical
CONDITION LABEL: AlphaScreen, Km of ATP; read-out: RON biochemical IC50

As a guide, the following entries are already answered.
Nc1ncc2c(-c3cnn(C4CCNCC4)c3)coc2c1O[C@H](c1ccccc1)C(F)(F)F [Example 392]    0.5 to 5 µM
C[C@@H](Oc1c(N)ncc2c(-c3ccc(C(=O)N4CCCC4)cc3)coc12)c1c(Cl)ccc(F)c1Cl [Example 84]    0.5 to 5 µM
CN/C(=N/C#N)N1CC=C(c2coc3c(O[C@H](C)c4c(Cl)ccc(F)c4Cl)c(N)ncc23)CC1 [Example 198]    0.5 to 5 µM
Cn1c(Cc2ccccc2)ncc(-c2ccc(COc3c(N)ncc4c(Br)coc34)cc2)c1=O [Example 465]    5 to 20 µM
C[C@@H](Oc1c(N)ncc2c(C3=CCN(C(=O)N4CCOCC4)CC3)coc12)c1c(Cl)ccc(F)c1Cl [Example 31]    0.5 to 5 µM

Required: IC50, one value per compound below.
1. CC(C)OC(=O)N1CC=C(c2coc3c(O[C@H](C)c4c(Cl)ccc(F)c4Cl)c(N)ncc23)CC1 [Example 53]
2. CC(=O)Nc1ccc(-c2coc3c(O[C@H](C)c4c(Cl)ccc(F)c4Cl)c(N)ncc23)cc1 [Example 58]
3. C[C@@H](Oc1c(N)ncc2c(-c3cccc(N)c3)coc12)c1c(Cl)ccc(F)c1Cl [Example 66]
4. C[C@@H](Oc1c(N)ncc2c(-c3ccc(C(=O)NCCN4CCCC4)cc3)coc12)c1c(Cl)ccc(F)c1Cl [Example 101]

["0.5 to 5 µM", "0.5 to 5 µM", "0.5 to 5 µM", "0.5 to 5 µM"]

For every record below, what is its IC50?
1. C[C@@H](Oc1c(N)ncc2c(-c3ccc(C(=O)NCCCO)cc3)coc12)c1c(Cl)ccc(F)c1Cl [Example 288]
2. C[C@@H](Oc1c(N)ncc2c(C3=CCN(S(=O)(=O)C4CC4)CC3)coc12)c1c(Cl)ccc(F)c1Cl [Example 48]
3. C[C@@H](Oc1c(N)ncc2c(C(=O)N(C)C)coc12)c1c(Cl)ccc(F)c1Cl [Example 177]
4. CC(Oc1c(N)ncc2c(-c3cnn(C4CCNCC4)c3)coc12)c1c(F)cc(Cl)cc1Cl (stereo not drawn) [Example 372]
5. C[C@@H](Oc1c(N)ncc2c(-c3ccc(CO)s3)coc12)c1c(Cl)ccc(F)c1Cl [Example 212]

["0.5 to 5 µM", "0.5 to 5 µM", "5 to 20 µM", "0.5 to 5 µM", "0.5 to 5 µM"]

Dear colleague, could you please provide IC50 for the compounds listed below?
1. C[C@@H](Oc1c(N)ncc2c(-c3ccc(O)cc3)coc12)c1c(Cl)ccc(F)c1Cl [Example 59]
2. CC(Oc1c(N)ncc2c(-c3cnn(C4CCNCC4)c3)coc12)c1c(Cl)ccc(Cl)c1Cl (stereo not drawn) [Example 349]
3. COC(=O)N1CCC(n2cc(-c3coc4c(O[C@H](C)c5c(Cl)ccc(F)c5Cl)c(N)ncc34)cn2)CC1 [Example 274]
4. COc1ccc(CC(C)Oc2c(N)ncc3c(-c4cnn(C5CCNCC5)c4)coc23)cc1 (stereo not drawn) [Example 431]

["0.5 to 5 µM", "< 0.5 µM", "0.5 to 5 µM", "0.5 to 5 µM"]
